As shown below, each of these compounds has a reported AUC(0-inf) value.
Test: AUC(0 to infinity) in cynomolgus monkey at 1 mg/kg, po
Assay type: ADME, organism-based, Macaca fascicularis
Set-up: time infinity, dose 1 mg/kg, route po
Conditions: in vivo

{"entry_smiles": "CONC(=O)c1ccc(C)cc1-c1ccc([C@@H](C)N(CC2CC2)c2nc(C(=O)NS(=O)(=O)C3CC3)c(C3CC3)s2)cc1", "units": "ng·h/mL", "AUC(0-inf)": 24000}
{"entry_smiles": "Cc1ccc(-c2nc(=O)s[nH]2)c(-c2ccc([C@@H](C)N(CC3CC3)c3nc(C(=O)NS(=O)(=O)C4CC4)c(C4CC4)s3)cc2)c1", "units": "ng·h/mL", "AUC(0-inf)": 39800}
{"entry_smiles": "Cc1sc(N(CC2CC2)[C@H](C)c2ccc(-c3cc(Cl)ccc3-c3nc(=O)o[nH]3)cc2)nc1C(=O)NS(=O)(=O)C1CC1", "units": "ng·h/mL", "AUC(0-inf)": 3740}
{"entry_smiles": "CNC(=O)c1ccc(C)cc1-c1ccc([C@@H](C)N(CC2CC2)c2nc(C(=O)NS(=O)(=O)C3CC3)c(C3CC3)s2)cc1", "units": "ng·h/mL", "AUC(0-inf)": 21400}
{"entry_smiles": "Cc1sc(N(CC2CC2)[C@H](C)c2ccc(-c3cc(Cl)ccc3-c3nc(=O)o[nH]3)cc2)nc1C(=O)NS(=O)(=O)C1CCCC1", "units": "ng·h/mL", "AUC(0-inf)": 1730}
{"entry_smiles": "Cc1sc(N(CC2CC2)[C@H](C)c2ccc(-c3cc(Cl)ccc3-c3nc(=O)o[nH]3)cc2)nc1C(=O)NS(C)(=O)=O", "units": "ng·h/mL", "AUC(0-inf)": 726}
{"entry_smiles": "Cc1sc(N(CC2CC2)[C@H](C)c2ccc(-c3cc(Cl)ccc3-c3nc(=O)o[nH]3)cc2)nc1C(=O)O", "units": "ng·h/mL", "AUC(0-inf)": 2210}
{"entry_smiles": "CCS(=O)(=O)NC(=O)c1nc(N(CC2CC2)[C@H](C)c2ccc(-c3cc(Cl)ccc3-c3nc(=O)o[nH]3)cc2)sc1C", "units": "ng·h/mL", "AUC(0-inf)": 2170}

----------
Experiment: Half life in cynomolgus monkey at 0.3 to 1 mg/kg, po
Format: ADME, organism-based, Macaca fascicularis
Settings: in vivo, dose 0.3-1 mg/kg
measure: half-life (h)

{"entry_smiles": "CCc1sc(N(CC2CC2)[C@H](C)c2ccc(-c3cc(C)ccc3-c3nc(=O)o[nH]3)cc2)nc1C(=O)NS(=O)(=O)C1CC1", "measure": "half-life", "units": "h", "value_observed": 3}
{"entry_smiles": "Cc1ccc(-c2nc(=O)o[nH]2)c(-c2ccc([C@@H](C)N(CC3CC3)c3nc(C(=O)NS(=O)(=O)C4CC4)c(C)s3)cc2)c1", "measure": "half-life", "units": "h", "value_observed": 2.1}
{"entry_smiles": "Cc1ccc(-c2nc(=O)o[nH]2)c(-c2ccc([C@@H](C)N(CC3CC3)c3nc(C(=O)NS(=O)(=O)C4CC4)c(C4CCC4)s3)cc2)c1", "measure": "half-life", "units": "h", "value_observed": 2.8}
{"entry_smiles": "Cc1ccc(-c2nc(=O)o[nH]2)c(-c2ccc([C@@H](C)N(CC3CC3)c3nc(C(=O)NS(=O)(=O)C4CC4)c(C4CC4)s3)cc2)c1", "measure": "half-life", "units": "h", "value_observed": 3.1}
{"entry_smiles": "Cc1ccc(-c2nc(=O)o[nH]2)c(-c2ccc([C@@H](C)N(CC3CC3)c3nc(C(=O)NS(=O)(=O)C4CC4)c(CC(C)C)s3)cc2)c1", "measure": "half-life", "units": "h", "value_observed": 2.3}
{"entry_smiles": "COCCc1sc(N(CC2CC2)[C@H](C)c2ccc(-c3cc(C)ccc3-c3nc(=O)o[nH]3)cc2)nc1C(=O)NS(=O)(=O)C1CC1", "measure": "half-life", "units": "h", "value_observed": 2.6}
{"entry_smiles": "Cc1ccc(-c2nc(=O)o[nH]2)c(-c2ccc([C@@H](C)N(CC3CC3)c3nc(C(=O)NS(=O)(=O)C4CC4)c(C(C)C)s3)cc2)c1", "measure": "half-life", "units": "h", "value_observed": 2.4}

----------
As shown below, each of these compounds has a reported Cmax value.
Assay: Cmax in cynomolgus monkey at 0.3 to 1 mg/kg, po
Assay type: ADME, organism-based, Macaca fascicularis
Parameters: route po
Conditions: in vivo, dose 0.3-1 mg/kg
measure: Cmax (ng/mL)

{"entry_smiles": "CCc1sc(N(CC2CC2)[C@H](C)c2ccc(-c3cc(C)ccc3-c3nc(=O)o[nH]3)cc2)nc1C(=O)NS(=O)(=O)C1CC1", "measure": "Cmax", "value_observed": 5970}
{"entry_smiles": "Cc1ccc(-c2nc(=O)o[nH]2)c(-c2ccc([C@@H](C)N(CC3CC3)c3nc(C(=O)NS(=O)(=O)C4CC4)c(C(C)C)s3)cc2)c1", "measure": "Cmax", "value_observed": 5670}
{"entry_smiles": "COCCc1sc(N(CC2CC2)[C@H](C)c2ccc(-c3cc(C)ccc3-c3nc(=O)o[nH]3)cc2)nc1C(=O)NS(=O)(=O)C1CC1", "measure": "Cmax", "value_observed": 3530}
{"entry_smiles": "Cc1ccc(-c2nc(=O)o[nH]2)c(-c2ccc([C@@H](C)N(CC3CC3)c3nc(C(=O)NS(=O)(=O)C4CC4)c(CC(C)C)s3)cc2)c1", "measure": "Cmax", "value_observed": 4250}
{"entry_smiles": "Cc1ccc(-c2nc(=O)o[nH]2)c(-c2ccc([C@@H](C)N(CC3CC3)c3nc(C(=O)NS(=O)(=O)C4CC4)c(C4CC4)s3)cc2)c1", "measure": "Cmax", "value_observed": 6960}
{"entry_smiles": "Cc1ccc(-c2nc(=O)o[nH]2)c(-c2ccc([C@@H](C)N(CC3CC3)c3nc(C(=O)NS(=O)(=O)C4CC4)c(C4CCC4)s3)cc2)c1", "measure": "Cmax", "value_observed": 7910}
{"entry_smiles": "Cc1ccc(-c2nc(=O)o[nH]2)c(-c2ccc([C@@H](C)N(CC3CC3)c3nc(C(=O)NS(=O)(=O)C4CC4)c(C)s3)cc2)c1", "measure": "Cmax", "value_observed": 3180}

----------
Experiment: Drug concentration in plasma of cynomolgus monkey at 30 mg/kg, po after 6 hrs
Type: ADME, organism-based, Macaca fascicularis
measure: concentration at 6 h

{"entry_smiles": "Cc1ccc(-c2nc(=O)o[nH]2)c(-c2ccc([C@@H](C)N(CC3CC3)c3nc(C(=O)NS(=O)(=O)C4CC4)c(C4CC4)s3)cc2)c1", "value_observed": "233 µM"}

----------
Assay: Half life in cynomolgus monkey at 0.3 mg/kg, po
Format: ADME, organism-based, Macaca fascicularis
Conditions: in vivo
measure: half-life (h)

{"entry_smiles": "CONC(=O)c1ccc(Cl)cc1-c1ccc([C@@H](C)N(CC2CC2)c2nc(C(=O)NS(=O)(=O)C3CC3)c(C3CC3)s2)cc1", "measure": "half-life", "units": "h", "value_observed": 3.3}
{"entry_smiles": "C[C@H](c1ccc(-c2cc(Cl)ccc2C(N)=O)cc1)N(CC1CC1)c1nc(C(=O)NS(=O)(=O)C2CC2)c(C2CC2)s1", "measure": "half-life", "units": "h", "value_observed": 1.8}
{"entry_smiles": "CNC(=O)c1ccc(Cl)cc1-c1ccc([C@@H](C)N(CC2CC2)c2nc(C(=O)NS(=O)(=O)C3CC3)c(C3CC3)s2)cc1", "measure": "half-life", "units": "h", "value_observed": 3.6}
{"entry_smiles": "CCONC(=O)c1ccc(Cl)cc1-c1ccc([C@@H](C)N(CC2CC2)c2nc(C(=O)NS(=O)(=O)C3CC3)c(C3CC3)s2)cc1", "measure": "half-life", "units": "h", "value_observed": 2.6}
{"entry_smiles": "Cc1ccc(-c2nc(=O)o[nH]2)c(-c2ccc([C@@H](C)N(CC3CC3)c3nc(C(=O)NS(=O)(=O)C4CC4)c(C4CC4)s3)cc2)c1", "measure": "half-life", "units": "h", "value_observed": 3.3}

----------
As shown below, each of these compounds has a reported Cmax value.
Assay: Cmax in cynomolgus monkey at 1 mg/kg, po
Type: ADME, organism-based, Macaca fascicularis
Parameters: dose 1 mg/kg, route po
Conditions: in vivo

{"entry_smiles": "CNC(=O)c1ccc(C)cc1-c1ccc([C@@H](C)N(CC2CC2)c2nc(C(=O)NS(=O)(=O)C3CC3)c(C3CC3)s2)cc1", "Cmax": "2810 ng/mL"}
{"entry_smiles": "Cc1ccc(-c2nc(=O)s[nH]2)c(-c2ccc([C@@H](C)N(CC3CC3)c3nc(C(=O)NS(=O)(=O)C4CC4)c(C4CC4)s3)cc2)c1", "Cmax": "4190 ng/mL"}
{"entry_smiles": "Cc1sc(N(CC2CC2)[C@H](C)c2ccc(-c3cc(Cl)ccc3-c3nc(=O)o[nH]3)cc2)nc1C(=O)O", "Cmax": "646 ng/mL"}
{"entry_smiles": "CCS(=O)(=O)NC(=O)c1nc(N(CC2CC2)[C@H](C)c2ccc(-c3cc(Cl)ccc3-c3nc(=O)o[nH]3)cc2)sc1C", "Cmax": "716 ng/mL"}
